Sequence of the target: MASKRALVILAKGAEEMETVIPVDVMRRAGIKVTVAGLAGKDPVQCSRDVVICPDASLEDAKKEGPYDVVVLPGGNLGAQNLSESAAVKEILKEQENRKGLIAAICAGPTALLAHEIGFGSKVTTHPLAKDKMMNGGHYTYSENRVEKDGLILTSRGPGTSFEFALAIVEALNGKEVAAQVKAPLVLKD
Readout kind: pIC50
Answers are plain numbers, as −log10 of the molar value.

May I ask what pIC50 has been recorded for O=C1Nc2ccccc2C1=O ?
4.89

Numbers sourced from paper PMC6370461.
